Values were extracted from patent US10428140B2.

- subjectOfTest: T1, human EphA10 (Homo sapiens, UniProt Q5JZY3)
- T1 construct: a protein of the extracellular region of each human Eph receptor fused with the SEAP protein and the His tag; made in house; host or cells: Expi293F cells (culture supernatant)
- T1 sequence (Q5JZY3 34-565 limits assumed): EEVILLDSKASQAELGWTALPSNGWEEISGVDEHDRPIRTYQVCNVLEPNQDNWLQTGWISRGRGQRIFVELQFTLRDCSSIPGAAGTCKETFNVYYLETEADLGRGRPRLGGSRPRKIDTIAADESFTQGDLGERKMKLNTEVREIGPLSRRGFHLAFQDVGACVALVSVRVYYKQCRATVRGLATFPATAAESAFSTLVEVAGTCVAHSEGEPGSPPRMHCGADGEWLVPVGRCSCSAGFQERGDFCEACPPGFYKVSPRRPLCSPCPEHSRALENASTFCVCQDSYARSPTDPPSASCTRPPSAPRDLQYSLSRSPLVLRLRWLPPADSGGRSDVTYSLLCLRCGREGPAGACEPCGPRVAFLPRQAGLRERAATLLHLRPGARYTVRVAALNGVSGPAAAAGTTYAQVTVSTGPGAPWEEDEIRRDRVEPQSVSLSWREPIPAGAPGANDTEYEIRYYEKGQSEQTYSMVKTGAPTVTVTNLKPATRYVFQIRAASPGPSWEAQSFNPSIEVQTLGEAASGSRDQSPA
- testDescription: Selectivity ELISA of humanized antibodies for human Eph receptor
- Assay type: binding
- conditionParameters: coated protein 1 nM
# hEphA10-SEAP-: absorbance at 450 nm, percentage with respect to hEphA4-SEAP-His as 100% listing for each entry below
# output: bare number, implied unit %

>>> experimentalvalue("96 (antibody, V domains shown, constant regions without entry; synthetic humanized antibody light chain variable region sequence; synthetic humanized antibody heavy chain variable region sequence) VL: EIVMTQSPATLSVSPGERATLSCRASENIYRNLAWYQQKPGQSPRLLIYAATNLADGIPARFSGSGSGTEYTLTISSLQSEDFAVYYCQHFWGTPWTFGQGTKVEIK VH: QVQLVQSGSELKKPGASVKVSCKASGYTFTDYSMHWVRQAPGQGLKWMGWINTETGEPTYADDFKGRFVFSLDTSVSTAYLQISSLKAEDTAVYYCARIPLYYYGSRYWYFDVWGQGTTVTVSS")
5.3
>>> experimentalvalue("87 (antibody, V domains shown, constant regions without entry; synthetic humanized antibody light chain variable region sequence; synthetic humanized antibody heavy chain variable region sequence) VL: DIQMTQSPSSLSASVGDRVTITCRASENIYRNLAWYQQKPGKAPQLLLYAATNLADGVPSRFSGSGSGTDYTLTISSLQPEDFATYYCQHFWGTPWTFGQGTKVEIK VH: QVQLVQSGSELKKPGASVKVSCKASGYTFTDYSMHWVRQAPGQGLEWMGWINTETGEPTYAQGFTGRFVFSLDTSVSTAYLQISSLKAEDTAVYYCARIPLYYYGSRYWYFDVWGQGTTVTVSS")
5.2
>>> experimentalvalue("91 (antibody, V domains shown, constant regions without entry; synthetic humanized antibody light chain variable region sequence; synthetic humanized antibody heavy chain variable region sequence) VL: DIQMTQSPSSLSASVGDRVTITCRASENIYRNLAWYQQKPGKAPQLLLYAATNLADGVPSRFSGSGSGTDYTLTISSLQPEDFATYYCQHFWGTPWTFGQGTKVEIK VH: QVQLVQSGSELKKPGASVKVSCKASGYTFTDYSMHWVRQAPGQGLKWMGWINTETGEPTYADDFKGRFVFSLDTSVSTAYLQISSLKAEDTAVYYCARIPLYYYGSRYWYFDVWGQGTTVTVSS")
8.5

Now look at this one.
Data request: Given the molecule 90 (antibody, V domains shown, constant regions without entry; synthetic humanized antibody light chain variable region sequence; synthetic humanized antibody heavy chain variable region sequence) VL: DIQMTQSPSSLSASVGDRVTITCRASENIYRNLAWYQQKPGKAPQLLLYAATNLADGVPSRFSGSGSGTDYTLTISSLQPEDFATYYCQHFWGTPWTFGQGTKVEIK VH: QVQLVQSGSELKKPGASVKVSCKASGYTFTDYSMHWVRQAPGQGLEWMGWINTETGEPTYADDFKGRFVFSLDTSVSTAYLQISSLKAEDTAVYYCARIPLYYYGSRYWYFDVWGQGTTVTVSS , write its reported hEphA10-SEAP-: absorbance at 450 nm, percentage with respect to hEphA4-SEAP-His as 100%.
Data returned: 5.1
